system: 7G8; test: qHTS profiling for inhibitors of Plasmodium falciparum proliferation (AID 504749); further: nearly all actives have a fitted effect of over 60% in size; further: potency means the concentration at half of the fitted maximal effect; conditions: P. falciparum in erythrocytes, SYBR Green DNA, 72 h; series mostly up to 28.7 µM
Results filed as inconclusive are left out. Calls of active or inactive are those of the source. The call rests on the fitted dose curve; in most records, active means well fitted inhibition curve with a large enough effect; inconclusive means small, poorly fitted or top-dose-only effect; inactive means flat fitted curve, though single readings scatter.
metric_name: Potency

{"molecule": "CC(C)(C)CC(C)(C)c1ccc(O)cc1", "measured_result": "12.6 µM (active)"}
{"molecule": "CC(C)NCC(O)c1ccccc1Cl (centres undefined)", "measured_result": "4.47 µM (active)"}
{"molecule": "CCN(CC)CCOC(=O)C(O)(c1ccccc1)c1ccccc1", "measured_result": "inactive"}
{"molecule": "O=c1[nH]c2ccccc2n1CCCN1CCC(n2c(=O)[nH]c3cc(Cl)ccc32)CC1", "measured_result": "1.41 µM (active)"}
{"molecule": "NCC1(CC(=O)O)CCCCC1", "measured_result": "inactive"}
{"molecule": "CC(=O)[C@H]1CC[C@H]2[C@@H]3CC[C@H]4C[C@H](O)CC[C@]4(C)[C@H]3C(=O)C[C@]12C", "measured_result": "inactive"}
{"molecule": "NCC(CC(=O)O)c1ccc(Cl)cc1 (centres undefined)", "measured_result": "inactive"}
{"molecule": "Clc1ccc(COC(Cn2ccnc2)c2ccc(Cl)cc2Cl)cc1 (centres undefined)", "measured_result": "0.398 µM (active)"}
{"molecule": "N#CC(C#N)=Cc1ccc(O)c(O)c1", "measured_result": "8.91 µM (active)"}
